- system name: human type 1 glycine transporter (GlyT1) (Homo sapiens, UniProt P48067)
- Construct: T98G cells (glioma cells) expressing human type 1 glycine transporter (GlyT1) were used
- Sequence (P48067 1-706): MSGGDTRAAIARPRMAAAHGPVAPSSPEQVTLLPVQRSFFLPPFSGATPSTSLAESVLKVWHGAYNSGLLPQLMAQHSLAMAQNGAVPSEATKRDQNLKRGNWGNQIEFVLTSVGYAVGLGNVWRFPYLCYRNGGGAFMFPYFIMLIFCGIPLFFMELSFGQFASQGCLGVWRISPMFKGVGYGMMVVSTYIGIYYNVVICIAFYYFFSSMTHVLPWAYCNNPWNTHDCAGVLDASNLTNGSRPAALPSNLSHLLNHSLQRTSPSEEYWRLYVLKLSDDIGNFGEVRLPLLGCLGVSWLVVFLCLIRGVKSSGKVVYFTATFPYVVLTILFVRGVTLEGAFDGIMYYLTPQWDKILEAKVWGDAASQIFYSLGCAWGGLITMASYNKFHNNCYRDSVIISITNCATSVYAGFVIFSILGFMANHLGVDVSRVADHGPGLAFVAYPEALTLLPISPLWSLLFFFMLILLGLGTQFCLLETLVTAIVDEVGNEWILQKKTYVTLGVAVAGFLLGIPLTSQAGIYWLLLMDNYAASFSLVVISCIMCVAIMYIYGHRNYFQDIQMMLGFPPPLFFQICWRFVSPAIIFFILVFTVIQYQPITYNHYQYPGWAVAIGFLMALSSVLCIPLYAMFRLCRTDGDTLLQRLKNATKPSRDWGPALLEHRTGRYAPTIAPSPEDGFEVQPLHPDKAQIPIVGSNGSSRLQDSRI
- test details: Glycine uptake inhibition experiment ([3H]glycine uptake)
- Type: cell-based
- conditions: GlyT1
molecules and their reported IC50

| molecule | IC50, µM |
| --- | --- |
| COc1ccccc1C(NC(=O)c1nccc(C(F)(F)F)c1Cl)C1(O)CCCC1 (stereo not shown) [Compound 50] | 0.54 |
| O=C(NC(c1cccc(F)c1Cl)[C@]1(O)CC[C@@H](F)CC1)c1cnnc2ccccc12 (single isomer, unassigned) [Compound 259] | 1 |
| O=C(NC(c1cccc(-c2cn[nH]c2)c1)C1(O)CCCC1)c1cccc(C(F)(F)F)c1Cl (stereo not shown) [Compound 9] | 0.11 |
| CCn1cc(-c2cccc(C(NC(=O)c3nccc(C(F)(F)F)c3Cl)C3(O)CCCC3)c2)cn1 (stereo not shown) [Compound 10] | 0.013 |
